// GI50 lookup, one value per entry
# Test system: SNB-75
# Test Description: NCI tumour cell line growth inhibition, 48 h
Calls of active or inactive are those of the source. Rule as the data show it: active = GI50 up to about 1.1 µM and inactive = higher.

compound=COC(OC)c1cc2c(cc1C=O)OCO2 assay_target=SNB-75 reported_endpoint=GI50 measured_value="21.2 µM (inactive)"

Briefly, GI50 measured for `CCOC(=O)C(=CNC(=S)c1ccncc1)C(=O)OCC` : 25.6 µM (inactive)

Form: compound = `CCP(=S)(CC)CCl` ; GI50 = > 100 µM (inactive)

Lookup result for O=C(O)c1c2c(cc3c1CC1(Cc4cc5c(cc4C1=O)CCC5)C3)CCC2 (configuration not stated) ; measured GI50: > 100 µM (inactive)

The recorded GI50 for COC(=O)C1(Cc2ccccc2)Cc2cc3c(cc2C1=O)CCC3 (configuration not stated) is 27.7 µM (inactive)

Form field GI50, entry `O=C(/C=C1\N=C(c2ccccc2)N(c2nc3c(Cl)cc(Cl)cc3s2)C1=O)/C=C/c1ccccc1` : 36.5 µM (inactive)

compound NC(=O)c1c(NC=O)ncn1C1OCC(O)C(O)C1O (configuration not stated) , GI50 observed: > 100 µM (inactive)

Form field GI50, entry CC(=O)NC(C)(C)C1CC=C(C)/C(=N\O)C1 (configuration not stated) : > 100 µM (inactive)

# compound `COc1ccc(CNC2=Nc3ccncc3S(=O)(=O)N2c2ccccc2)cc1` ; its GI50 = 39.1 µM (inactive)

Per the record, `NNC(=O)CNc1cccc(Br)c1` has GI50 of > 100 µM (inactive)

The recorded GI50 for entry `S=P(N1CCCC1)(N1CC1)N1CC1` equals > 100 µM (inactive)

Sure, the documented GI50 for COc1ccc2c(c1)OC(c1cccnc1)C(c1ccccc1)C2=O (configuration not stated) is > 100 µM (inactive)

---

# Test system: HCT-116
# Test Description: NCI tumour cell line growth inhibition, 48 h
Calls of active or inactive are those of the source. Rule as the data show it: active = GI50 up to about 1.1 µM and inactive = higher.
Your reply should match one of these outcome classes. y = active, n = inactive

Illustrative cases are given below, each with its answer.
compound=C/C(=N\Nc1nc2ccccc2o1)c1ncccn1 label=y
compound=COc1ccc(Cc2cc(OC)c(OC)c(OC)c2)cc1 label=y
compound=CC(=O)Nc1nnc(S(C)(=O)=O)s1 label=n
compound=COC(=O)[C@]12CSC[C@H]1C[C@H](c1ccccc1OC)N2 label=n
compound=Nc1nc(O)c([N+](=O)[O-])c(NCCOCP(=O)(O)O)n1 label=n

What outcome does the record of this test show for `C/C(=N\N=C(N)N)c1sc(-c2nc(C)c(/C(C)=N/N=C(N)N)s2)nc1C` ?
n

Answer briefly: the call reported for `O=C(c1ccc(Cl)cc1)N(C(=O)N1CCCCC1)c1ccccc1` in this assay.
n

Hi, do you know how CC(=O)[C@]1(O)Cc2c(O)c3c(c(O)c2C(OC2OC(C)C(O)C(O)C2F)C1)C(=O)c1ccccc1C3=O (stereo not given in full) came out in this test?
y

Any idea what this test logged for C[C@]12CC[C@@H]3c4cc(Br)c(O)c(Br)c4CC[C@H]3[C@@H]1CC(Br)C2=O (stereo not given in full) ?
n

Assay outcome for CN(C)CC1CC/C(=C\c2ccc(O)cc2)C1=O (stereo not given) : what was it?
n

Check the results log: what was the call for CC(=O)NC(C)(C)C1CC=C(C)/C(=N\O)C1 (stereo not given) ?
n

What did this assay record as the result for `CCOC(=O)C(Cc1ccc2c(c1)CCC2)(Cc1ccc2c(c1)CCC2)C(=O)OCC` ?
n

So what was the verdict on C/C=C(\C)[C@@H](O)C(=O)O[C@@H]1CC(C(C)(C)O)[C@](C)(CCC(=O)OC)[C@H]2[C@H](OC(=O)[C@H](O)[C@H](C)CC)C[C@]3(C)C(=CC[C@H]3[C@H]3CO[C@H](C=C(C)C)C3)[C@]12C (stereo not given in full) in this test?
n

Name the outcome recorded for `O=C1Oc2ccccc2N/C1=C/C(=O)c1ccc(Cl)cc1` in the assay.
n

// param item: CC(=O)NC(Cc1ccccc1)NC(=O)O (stereo not given) ; yields the recorded call
n

Lab log entry: `NS(=O)(=O)c1ccc(Nc2c3ccccc3nc3c(C(=O)N4CCN(CCO)CC4)cccc23)cc1` — outcome as called in the assay?
n

Called result for `CC(C)(C)C(=O)C(C(=O)c1ccccc1)C(=O)C(C)(C)C`
n

Assay result, entry `C/C(=N\N=C(/S)N(C)C)c1cccc[n+]1[O-]` — outcome?
y

Test call for this compound, please: CCOP(=O)(OCC)C(Nc1ccc(Cl)cc1)c1ccc(F)cc1 (stereo not given)
n
